Values compiled from patent US9771369B2.

# Assay target: c-Kit kinase (Homo sapiens (Human), UniProt P10721)
# Sequence (P10721 26-976): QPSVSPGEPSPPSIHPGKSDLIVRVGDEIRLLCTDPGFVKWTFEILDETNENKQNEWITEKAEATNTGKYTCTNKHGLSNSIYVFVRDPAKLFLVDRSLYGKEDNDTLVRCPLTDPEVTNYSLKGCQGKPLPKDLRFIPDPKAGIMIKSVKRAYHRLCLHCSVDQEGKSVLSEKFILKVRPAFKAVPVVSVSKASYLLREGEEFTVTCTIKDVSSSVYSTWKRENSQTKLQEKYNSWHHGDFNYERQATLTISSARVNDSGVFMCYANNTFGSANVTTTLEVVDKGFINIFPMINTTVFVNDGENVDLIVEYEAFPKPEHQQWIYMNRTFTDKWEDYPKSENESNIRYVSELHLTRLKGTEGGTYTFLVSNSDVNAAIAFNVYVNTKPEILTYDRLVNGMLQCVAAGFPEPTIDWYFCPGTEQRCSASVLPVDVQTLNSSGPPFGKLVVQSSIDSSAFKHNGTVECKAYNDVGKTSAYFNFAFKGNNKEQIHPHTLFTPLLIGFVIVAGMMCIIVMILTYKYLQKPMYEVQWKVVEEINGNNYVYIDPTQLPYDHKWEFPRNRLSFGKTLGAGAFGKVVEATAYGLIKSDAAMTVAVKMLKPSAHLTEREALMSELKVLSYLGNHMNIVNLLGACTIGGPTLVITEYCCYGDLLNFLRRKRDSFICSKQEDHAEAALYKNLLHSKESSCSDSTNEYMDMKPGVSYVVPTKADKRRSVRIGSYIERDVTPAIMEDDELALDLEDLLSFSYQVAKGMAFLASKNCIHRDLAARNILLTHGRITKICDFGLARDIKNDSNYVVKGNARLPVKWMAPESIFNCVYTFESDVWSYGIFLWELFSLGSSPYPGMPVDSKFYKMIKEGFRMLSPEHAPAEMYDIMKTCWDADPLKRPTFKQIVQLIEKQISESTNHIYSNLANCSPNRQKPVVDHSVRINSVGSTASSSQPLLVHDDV
# Assay comment: c-Kit biochemical assay (AlphaScreen kinase activity)
// IC50 lookup, one value per entry

Sample Cc1nc(C2CCN(c3ncnc4[nH]c(-c5ccc(C#N)cc5)cc34)CC2)[nH]c1-c1ccc(C(F)(F)F)cc1 [P-3137] ; IC50 observed: 1 to 10 µM

Sample Cc1nc(C2CCN(c3ncnc4[nH]c(-c5ccc(C#N)cc5)cc34)CC2)[nH]c1-c1ccc(C(F)F)cc1 [P-3162] ; IC50 observed: 1 to 10 µM

Sample COc1cc(-c2cc3c(N4CCC(c5nc(C(F)(F)F)c(-c6ccc(C)cc6)[nH]5)CC4)ncnc3[nH]2)ccn1 [P-3134] ; IC50 observed: 0.0001 to 1 µM

Sample Cc1nc(C2(C)CCN(c3ncnc4[nH]c(-c5ccc(N6CCOCC6)nc5)cc34)CC2)[nH]c1-c1ccc(OC(F)F)cc1 [P-3248] ; IC50 observed: 0.0001 to 1 µM

Sample COc1cccc(-c2[nH]c(C3CCN(c4ncnc5[nH]c(-c6ccc(C#N)cc6)cc45)CC3)nc2C(F)(F)F)c1 [P-3124] ; IC50 observed: 0.0001 to 1 µM

Sample COc1cc(-c2cc3c(N4CCC(c5nc(C)c(-c6ccc(C(F)(F)F)cc6)[nH]5)CC4)ncnc3[nH]2)ccn1 [P-3149] ; IC50 observed: 1 to 10 µM
